# TEST SYSTEM: CRF1 receptor (Homo sapiens, UniProt P34998)
# Construct: endogenous in cells; host or cells: IMR-32 cells, transformed with 5'-bromo-2'-deoxyuridine; membrane preparation
# METHOD SUMMARY: CRF1 receptor radioligand binding assay ([125I]-oCRF competition, IMR-32 cell membranes)
# CONDITION DETAILS: Second Set of Examples (Table 2), [125I]-oCRF (100 pM), read-out: IC50
# Experimental: CRF1 receptor antagonists, by occupying the same receptors, blocks the accessibility of the receptors to CRF, a hypothalamic factor mediating body's responses to physiological and psychological stress. […] Radioligand binding assays. […] IC50 values for oCRF and test compounds were calculated by nonlinear regression using a one-site binding curve (GraphPad Prism).
pIC50: −log10 of the molar value.
RECORDED METRIC: pIC50

RECORD SMILES	TEST SYSTEM	READOUT NUMBER
CCN(C)Cc1sc(Nc2c(Cl)cc(Cl)cc2Cl)nc1C(F)(F)F	CRF1 receptor (Homo sapiens, UniProt P34998)	5.77
CCCCN(CCC#N)Cc1sc(Nc2c(Cl)cc(Cl)cc2Cl)nc1C(F)(F)F	CRF1 receptor (Homo sapiens, UniProt P34998)	6.43
CCCN(Cc1sc(Nc2c(Cl)cc(Cl)cc2Cl)nc1C(F)(F)F)CC(F)(F)C(F)(F)F	CRF1 receptor (Homo sapiens, UniProt P34998)	6.08

1 = FC(F)(F)CN(Cc1sc(Nc2c(Cl)cc(Cl)cc2Cl)nc1C(F)(F)F)CC1CCC1
2 = FC(F)(F)c1nc(Nc2c(Cl)cc(Cl)cc2Cl)sc1CNCCc1ccc(Cl)c(Cl)c1
Challenge: Which shows the larger pIC50 value: 1 or 2 ? Provide the label of your selected option as the answer.
Response given: 1

----------
# TEST SYSTEM: CRF1 receptor (Homo sapiens, UniProt P34998)
# Construct: endogenous in cells; host or cells: IMR-32 cells, transformed with 5'-bromo-2'-deoxyuridine; membrane preparation
# Sequence (P34998 24-415): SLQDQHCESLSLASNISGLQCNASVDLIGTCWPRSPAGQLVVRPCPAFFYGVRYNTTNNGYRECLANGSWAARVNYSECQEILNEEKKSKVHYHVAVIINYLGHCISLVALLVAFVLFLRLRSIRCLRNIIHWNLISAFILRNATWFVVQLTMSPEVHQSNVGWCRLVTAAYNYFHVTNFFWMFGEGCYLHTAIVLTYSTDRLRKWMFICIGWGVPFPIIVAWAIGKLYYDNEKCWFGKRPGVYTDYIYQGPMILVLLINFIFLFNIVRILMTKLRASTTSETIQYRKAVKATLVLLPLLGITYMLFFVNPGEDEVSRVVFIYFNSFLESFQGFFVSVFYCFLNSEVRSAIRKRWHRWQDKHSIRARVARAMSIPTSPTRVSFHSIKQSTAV
# METHOD SUMMARY: CRF1 receptor radioligand binding assay ([125I]-oCRF competition, IMR-32 cell membranes)
# CONDITION DETAILS: Second Set of Examples (Table 2), [125I]-oCRF (100 pM), read-out: IC50
# Method: CRF1 receptor antagonists, by occupying the same receptors, blocks the accessibility of the receptors to CRF, a hypothalamic factor mediating body's responses to physiological and psychological stress. […] Radioligand binding assays. […] IC50 values for oCRF and test compounds were calculated by nonlinear regression using a one-site binding curve (GraphPad Prism).
pIC50: −log10 of the molar value.
RECORDED METRIC: pIC50

Reference set (3 entries):
COMPOUND	TEST SYSTEM	RECORDED METRIC	READOUT NUMBER
FC(F)(F)CN(CCC1CC1)Cc1sc(Nc2c(Cl)cc(Cl)cc2Cl)nc1C(F)(F)F [compound 28]	CRF1 receptor (Homo sapiens, UniProt P34998)	pIC50	6.63
CCCN(CCc1ccc(Cl)c(Cl)c1)Cc1sc(Nc2c(Cl)cc(Cl)cc2Cl)nc1C(F)(F)F [compound 15]	CRF1 receptor (Homo sapiens, UniProt P34998)	pIC50	7.01
FC(F)(F)c1nc(Nc2c(Cl)cc(Cl)cc2Cl)sc1CNCc1ccc(Cl)c(Cl)c1 [compound 57]	CRF1 receptor (Homo sapiens, UniProt P34998)	pIC50	5.15

a = FC(F)(F)c1nc(Nc2c(Cl)cc(Cl)cc2Cl)sc1CN(CC1CC1)CC(F)(F)C(F)(F)F [compound 27]
b = Fc1cccc(CN(Cc2sc(Nc3c(Cl)cc(Cl)cc3Cl)nc2C(F)(F)F)CC(F)(F)F)c1 [compound 73]
Challenge: Looking at a and b , which one comes out lower in pIC50 terms? Indicate your choice by writing its label.
Response given: b
(b: 6.13, a: 6.63)
